metric name: melting point

## Task Give the measured melting point of O=C(NN1CCCCC1)c1nc(-c2ccccn2)n(-c2ccc(Cl)cc2Cl)n1 .
## Result 191 to 193 °C

## Task Consider the compound shown here: O=C(NN1CCCCC1)c1nc(-c2cccnc2)n(-c2ccc(Cl)cc2Cl)n1 What is its recorded melting point?
## Result 219 °C

## Task melting point lookup needed for Cl.O=C(NN1CCCC1)c1nc(-c2ccc(Cl)cc2Cl)n(-c2ccc(Cl)cc2)n1 , thanks.
## Result 234 to 236 °C (dec.)

## Task What does the record list as melting point for O=C(NN1CCOCC1)c1nc(-c2ccc(Cl)cc2)n(-c2ccc(Cl)cc2Cl)n1 ?
## Result 184 to 186 °C

## Task I have this compound here, Cl.O=C(NN1CCCC1)c1nc(-c2ccc(Cl)cc2)n(-c2ccc(Cl)cc2Cl)n1 [Example 2] , and I need its recorded melting point.
## Result 248 to 255 °C (dec.)

## Task Sample O=C(NC1CCCCC1)c1nc(-c2ccc(Cl)cc2)n(-c2ccc(Cl)cc2Cl)n1 [Example 3] — what was its melting point?
## Result 186 to 188 °C

## Task Form field: reported melting point of O=C(NN1CCCCC1)c1nc(-c2ccc(Cl)cc2Cl)n(-c2ccc(C(F)(F)F)cc2)n1
## Result 159 to 161 °C

## Task Consider the compound CC(C)(C)ONC(=O)c1nc(-c2ccc(Cl)cc2)n(-c2ccc(Cl)cc2Cl)n1 and give its measured melting point.
## Result 150 to 152 °C

## Task Field request: melting point | item: Cl.O=C(NN1CCCCC1)c1nc(-c2ccc(Cl)cc2)n(-c2ccc(Cl)cc2Cl)n1
## Result 238 to 240 °C (dec.)

## Task Name the recorded melting point for Cl.O=C(NN1CCOCC1)c1nc(-c2ccc(Cl)cc2Cl)n(-c2ccc(Cl)cc2)n1 .
## Result 224 to 226 °C
